The reader will find reported Inhibition percent of rat paw edema values listed item by item below.
# System: carrageenan induced rat paw edema
# method-summary: Carrageenan induced rat paw edema
# Assay type: in vivo
# condition-context: 10 mg/kg.b.wt oral; 1 h after carrageenan; mean ± SD
Marks after values point to notes of the source that are not given here.

{"columns": ["smiles-input", "Inhibition percent of rat paw edema"],
 "data": [
  ["NNc1nc(-c2cccnc2)cc(-c2cccs2)n1", "15.41 ± 0.83^cd %"],
  ["S=c1nc(-c2cccnc2)cc(-c2cccs2)[nH]1", "21.43 ± 0.96^b %"],
  ["N#Cc1c(-c2cccs2)cc(-c2cccnc2)oc1=O", "13.75 ± 1.15^de %"],
  ["O=C(/C=C/c1cccs1)c1cccnc1", "31.98 ± 9.35^a %"]
]}

----------
# assayed-target: ovine COX-2 (Ovis aries, UniProt P79208)
# Construct: purchased
# Sequence (P79208 17-603): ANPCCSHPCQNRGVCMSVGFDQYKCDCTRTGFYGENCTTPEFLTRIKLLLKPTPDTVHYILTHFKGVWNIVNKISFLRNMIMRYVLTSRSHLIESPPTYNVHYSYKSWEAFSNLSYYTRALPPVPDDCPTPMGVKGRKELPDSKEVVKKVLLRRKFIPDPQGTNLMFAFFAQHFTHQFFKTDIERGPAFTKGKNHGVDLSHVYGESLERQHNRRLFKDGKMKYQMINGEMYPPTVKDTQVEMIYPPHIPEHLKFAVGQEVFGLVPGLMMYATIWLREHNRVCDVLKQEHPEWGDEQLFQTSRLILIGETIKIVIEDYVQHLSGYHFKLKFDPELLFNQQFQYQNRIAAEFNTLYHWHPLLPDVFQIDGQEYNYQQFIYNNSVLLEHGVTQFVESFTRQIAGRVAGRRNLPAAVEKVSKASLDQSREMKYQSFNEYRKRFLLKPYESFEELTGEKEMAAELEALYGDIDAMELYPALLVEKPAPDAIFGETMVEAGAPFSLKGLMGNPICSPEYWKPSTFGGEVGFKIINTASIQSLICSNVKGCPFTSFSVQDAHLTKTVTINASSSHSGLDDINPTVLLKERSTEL
# method-summary: In vitro COX-2 inhibition, colorimetric ovine COX-1/COX-2 inhibitor screening assay kit
# Assay type: biochemical
# condition-context: IC50 (COX-1)/IC50 (COX-2)

{"columns": ["compound", "COX-1/COX-2 selectivity index"],
 "data": [
  ["N#Cc1c(-c2cccs2)cc(-c2cccnc2)oc1=O [Compound 6]", 5.89],
  ["S=c1nc(-c2cccnc2)cc(-c2cccs2)[nH]1 [Compound 4]", 9.13],
  ["O=C(/C=C/c1cccs1)c1cccnc1 [Compound 3]", 9.49],
  ["NNc1nc(-c2cccnc2)cc(-c2cccs2)n1 [Compound 5]", 5.29]
]}
